- System: Saccharomyces cerevisiae growth inhibition, permissive control
- test-details: yeast lifespan-shortening chemical project counter-assay, dose-response inhibition of growth under permissive conditions (AID 850);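 note: growth read as optical density after one day of incubation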
The source made the active and inactive calls. The rule behind the calls is not given here.
The reply should name one outcome from T for active, F for inactive

Solved cases (5 shown):
{"molecule": "Clc1ccccc1N/N=C/c1ccc2c(c1)OCO2", "experimental-target": "Saccharomyces cerevisiae growth inhibition, permissive control", "category": "T"}
{"molecule": "Cn1c(/C=C/c2ccc([N+](=O)[O-])o2)nc2ccccc2c1=O", "experimental-target": "Saccharomyces cerevisiae growth inhibition, permissive control", "category": "T"}
{"molecule": "CC1=NNC(=O)/C1=C\\c1cn(-c2ccccc2)nc1-c1cccs1", "experimental-target": "Saccharomyces cerevisiae growth inhibition, permissive control", "category": "T"}
{"molecule": "O=C(COc1ccccc1)NNC(=S)NC(=O)c1ccc(Cl)cc1Cl", "experimental-target": "Saccharomyces cerevisiae growth inhibition, permissive control", "category": "T"}
{"molecule": "CCCCOc1ccc(C(=O)NNC(=S)NC(=O)CC)cc1", "experimental-target": "Saccharomyces cerevisiae growth inhibition, permissive control", "category": "T"}

Answer briefly: the call reported for COc1ccc(/C=C/C(=O)c2cc(Br)ccc(=O)c2O)cc1 in this assay.
T

Answer briefly: the call reported for OC(CNCCc1ccc(C(F)(F)F)cc1)COc1ccc2ccccc2c1 (centres undefined) in this assay.
F

Answer briefly: the call reported for CCC(=O)c1c(O)n(C2CCCCCC2)c(=O)[nH]c1=O in this assay.
T

Answer briefly: the call reported for COc1ccc(NC(=O)C2CCCN2S(=O)(=O)c2cccc3cccnc23)c(OC)c1 (centres undefined) in this assay.
T

Answer briefly: the call reported for CC1=NOC(=O)/C1=C\c1ccc(-c2ccc(Cl)cc2Cl)o1 in this assay.
T

Answer briefly: the call reported for O=[N+]([O-])c1ccc(Sc2nc3ccccc3o2)c([N+](=O)[O-])c1 in this assay.
T

Answer briefly: the call reported for CCOC(=O)C(=NCCCN(C)C)NNc1ccc(Br)cc1 in this assay.
T

Answer briefly: the call reported for CCSc1nc(N)nc(-c2cccs2)c1C#N in this assay.
T

Answer briefly: the call reported for S=C(NCc1ccc(Cl)cc1Cl)NC1CCCCC1 in this assay.
F

Answer briefly: the call reported for CCCCCC/C(=N/O)c1ccccn1 in this assay.
T

Answer briefly: the call reported for O=C(CSC1=NCCS1)N1CCN(c2ccc(Cl)cc2)CC1 in this assay.
F

Answer briefly: the call reported for CCOC(=O)C1=Nc2ccccc2C1=[N+]=[N-] in this assay.
T

Answer briefly: the call reported for O=C(C1=C(O)/C(=C/c2ccc(O)cc2)CCC1)C(F)(F)F in this assay.
F

Answer briefly: the call reported for Oc1c(CN2CCN(c3ccc(F)cc3)CC2)cc(Cl)c2cccnc12 in this assay.
T

Recorded values, source PubChem BioAssay AID850.
